- CONDITION_CONTEXT: in water, 278.15 K
MEASURED_PROPERTY: solubility (mole fraction)

Request: Please give measured solubility (mole fraction) of the following entry: `O=[N+]([O-])c1cccc(Cl)c1Cl`
Response: 1.6e-06

###

- CONDITION_CONTEXT: in water, 290.65 K
MEASURED_PROPERTY: solubility (mole fraction)
Response field accepts a number only; no unit should be typed.

Request: Please give measured solubility (mole fraction) of the following entry: `O=[N+]([O-])c1cccc(Cl)c1Cl`
Response: 4.85e-06

###

- CONDITION_CONTEXT: in ethanol, 288.15 K
MEASURED_PROPERTY: solubility (mole fraction)
Response field accepts a number only; no unit should be typed.

Request: Please give measured solubility (mole fraction) of the following entry: `O=[N+]([O-])c1cccc(Cl)c1Cl`
Response: 0.0231

src = BigSolDB 2.1
